These entries and their values trace back to PubChem BioAssay.

biological target: Short transient receptor potential channel 4 (Mus musculus) (UniProt Q9QUQ5); experiment: blockers of DAMGO-evoked TRPC4 calcium flux – cell-based, Fluo4, HEK293 TRPC4beta/mu-opioid, confirmation (AID 2636); conditions: at 10 µM
Sequence (Q9QUQ5 whole entry, looked up): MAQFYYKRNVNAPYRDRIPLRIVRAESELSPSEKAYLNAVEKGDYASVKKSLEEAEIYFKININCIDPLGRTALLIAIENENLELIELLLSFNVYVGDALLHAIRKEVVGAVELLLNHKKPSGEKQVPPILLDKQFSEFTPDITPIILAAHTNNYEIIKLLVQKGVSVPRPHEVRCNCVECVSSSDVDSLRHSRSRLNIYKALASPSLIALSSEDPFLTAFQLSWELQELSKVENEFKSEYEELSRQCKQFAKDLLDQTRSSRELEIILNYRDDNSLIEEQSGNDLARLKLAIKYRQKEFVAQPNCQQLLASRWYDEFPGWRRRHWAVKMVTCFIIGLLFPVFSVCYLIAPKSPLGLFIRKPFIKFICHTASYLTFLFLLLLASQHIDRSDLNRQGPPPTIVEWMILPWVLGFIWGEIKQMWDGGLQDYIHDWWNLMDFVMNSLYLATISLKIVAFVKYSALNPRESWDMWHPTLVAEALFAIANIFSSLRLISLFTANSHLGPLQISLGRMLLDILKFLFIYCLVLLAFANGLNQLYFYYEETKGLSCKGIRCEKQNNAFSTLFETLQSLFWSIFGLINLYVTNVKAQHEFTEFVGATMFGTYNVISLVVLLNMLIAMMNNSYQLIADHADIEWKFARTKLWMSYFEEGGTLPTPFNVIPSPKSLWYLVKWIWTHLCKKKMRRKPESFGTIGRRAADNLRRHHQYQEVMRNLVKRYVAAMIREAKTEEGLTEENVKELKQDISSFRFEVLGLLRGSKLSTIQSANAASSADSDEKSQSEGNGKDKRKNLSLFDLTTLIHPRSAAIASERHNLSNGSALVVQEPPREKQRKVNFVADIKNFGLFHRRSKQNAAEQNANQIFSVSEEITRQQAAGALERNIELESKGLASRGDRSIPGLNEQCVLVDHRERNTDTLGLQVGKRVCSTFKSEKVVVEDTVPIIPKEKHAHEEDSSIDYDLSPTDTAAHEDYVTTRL
The source made the active and inactive calls.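 The calls were made as follows: active = calcium signal cut by more than 3 SD below the full-agonist control yet still positive, in both repeats and the earlier primary screen; inactive = the rest.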
Outcome (select one): true (1) (active), false (0) (inactive)

Previously resolved entries follow.
In [3]: df
Out[3]:
                                   compound  assigned_category
0  Cc1cccc(C)c1OCC(=O)N1CC2(C)CC1CC(C)(C)C2 (stereo not drawn)          false (0)
1  CCOC(=O)C1=C(C)N(C)C(=S)NC1c1cccc(Cl)c1Cl (stereo not drawn)          false (0)
2         Cc1ccccc1-c1n[nH]c(=S)n1Cc1ccccc1          false (0)
3  CCCn1c(NC(=O)c2ccc(Cl)c(S(=O)(=O)N3CCCC3)c2)nc2ccccc21           true (1)
4  Cc1nn(-c2ccccc2)c2[nH]c(C(F)(F)F)cc(=O)c12           true (1)
5          Cc1ccc(Nc2cc(C)nc3c(C)cccc23)cc1          false (0)
6                O=C(NC1CCCC1)c1cc2ccccc2o1          false (0)
7  COC(=O)c1ccc(/C=N/N2CCN(Cc3ccc(C)cc3C)CC2)cc1          false (0)

Qu. Record lookup: outcome of this test for CCOC(=O)CC(NS(=O)(=O)c1ccc(OC)c(C)c1)c1cccc([N+](=O)[O-])c1 (stereo not drawn) ?
Ans. false (0)

Qu. Hi, do you know how `Cc1cc(C(=O)CN2C(=O)C(=O)N(CC(C)C)C2=O)c(C)n1-c1ccccc1F` came out in this test?
Ans. false (0)

Qu. Recorded test outcome, item CCCCC(CC)C(=O)Nc1ncc([N+](=O)[O-])s1 (stereo not drawn)
Ans. true (1)

Qu. Per the assay record, what outcome was assigned to `CCN1CCN(c2ccc(S(=O)(=O)N3CCOCC3)cc2NC(=O)c2ccccc2OC(F)F)CC1` ?
Ans. false (0)

Qu. Hi team, can someone confirm the assay call for `CCOc1ccc(-n2c(C)cc(/C=C3/C(=N)N4C(=NC3=O)SN=C4S(C)(=O)=O)c2C)cc1` ?
Ans. false (0)

Qu. In this assay, the call recorded for `N=c1c2c(n(Cc3ccccc3)c3c1CCC3)CCC2` was what?
Ans. true (1)

* * *

biological target: Short transient receptor potential channel 4 (Mus musculus); test: calcium flux activators in TRPC4/5HT1a cells, counter-screen for TRPC4 activator project, cell-based, second counter screen, HEK293 TRPC4/5HT1a, Fluo-4 (AID 434977); conditions: Fluo-4 calcium flux, at 10 µM
Active and inactive are the calls of the source.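 How the source made its calls: active means calcium signal rise above buffer-control mean plus 5 SD in both duplicates, and also a hit in the primary screen; inactive means the rest.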
Can you answer with just one of these options? class 1 (active), class 0 (inactive)

Below are worked cases with known answers.
In [3]: df
Out[3]:
                                   compound                               target_desc  assigned_category
0  Cn1c(CN2CCN(c3ccccc3NS(C)(=O)=O)CC2)nc2ccccc21  Short transient receptor potential channel 4 (Mus musculus)            class 0
1  O=C(NCCNC1CCC(c2ccccc2)CC1)c1cccs1 (centres undefined)  Short transient receptor potential channel 4 (Mus musculus)            class 1
2         N=c1n(CCO)c2ccccc2n1Cc1ccc(Cl)cc1  Short transient receptor potential channel 4 (Mus musculus)            class 0

Qu. For this compound, state the assay outcome: `CN(C)CCCNc1nc(N)c([N+](=O)[O-])c(NCc2ccccc2)n1`
Ans. class 0

Qu. Answer briefly: the call reported for `O=C1Cc2ccccc2Sc2c(OCCN3CCCCC3)cccc21` in this assay.
Ans. class 0

* * *

target: Short transient receptor potential channel 4 (Mus musculus) (UniProt Q9QUQ5); assay: calcium entry via TRPC4 opening agents – cell-based, HEK293 TRPC4/mu-opioid, Fluo-4 calcium, dose response (AID 434937); details: HEK293 TRPC4 cells, Fluo-4 calcium fluorescence ratio; series mostly up to 20 µM
Results with a measured potency or affinity are listed apart. Active and inactive are the calls of the source.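 Rule for the calls: active = primary screen activator hit with a dose response curve and TRPC4 channel activation at any tested dose; inactive = no activation, no dose response, or not a primary hit.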
ENDPOINT NAME: outcome

Please review the entries below; each comes with its answer.
>>> df
                                   compound  endpoint_name  recorded_result
0          CC(C)(C)Cc1nc2ccccc2n1CCc1ccccc1        outcome         inactive
1  CN(Cc1ccccc1)C(=O)c1oc(=O)c2ccccc2c1-c1ccccc1        outcome         inactive
2  NC(N)=NN=C1CCC(c2ccccc2)CC1 (stereo not drawn)        outcome         inactive
3  CC(Sc1nc2sc3c(c2c(=O)n1-c1ccccc1)CCCC3)C(=O)O (stereo not drawn)        outcome         inactive

Report outcome for each item below.
1. COc1ccc(C)cc1N(C(=O)c1snc(C(N)=O)c1N)C(C(=O)NC1CCCC1)c1ccc(F)cc1 (stereo not drawn)
2. CCCSc1nc(N)nc(-c2cccs2)c1C#N
3. CC(=O)Nc1ccc(S(=O)(=O)NC2=C(N3CCN(Cc4ccccc4)CC3)C(=O)c3ccccc3C2=O)cc1
4. O=C(COC(=O)C1CC1)Nc1nc(-c2ccc(F)c(F)c2)cs1

Ans.
1. inactive
2. inactive
3. inactive
4. inactive

Parameters: items (list). Returns: outcome for each item.
1. Cc1ccc(S(=O)(=O)N2CCC(C(=O)OCC(=O)N(C)CC(=O)Nc3ccc(F)cc3)CC2)cc1C
2. CC1CCN(C(C)C(=O)Nc2ccccc2-c2ccccc2)CC1 (stereo not drawn)
3. O=[N+]([O-])c1c(Nc2cccc(O)c2)cc(Cl)c2nonc12
4. Cc1ccc(C(=O)NNC(=O)C2CSC3(C)CCC(=O)N23)cc1 (stereo not drawn)
5. CC(C)CCn1c(Sc2nc3ccccc3o2)nc2c1c(=O)[nH]c(=O)n2C
6. O=C(COc1coc(CN2CCN(c3ccccc3F)CC2)cc1=O)Nc1ccccc1
7. Oc1c(Br)cc(Br)cc1C=Nc1ccc2[nH]ncc2c1

Ans.
["inactive", "inactive", "inactive", "inactive", "inactive", "inactive", "inactive"]

* * *

tested on: transient receptor potential cation channel C4 beta (TRPC4), mouse; experiment: TRPC4 cation channel opening, second retest – cell-based, second round, Fluo4, HEK293 TRPC4beta/mu-opioid, 1 µM, confirmation (AID 2461); conditions: Fluo4 calcium fluorescence, at 1 µM
Calls of active or inactive are those of the source.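 Rule for the calls: active = primary screen active and over 50% activation in each of two duplicate runs; inactive = the rest.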
Reply using exactly one outcome from Yes for active, No for inactive

Examples with answers:
                                   molecule  assigned_category
0  OCC1(Cc2ccccc2)CCN(Cc2ccc(C(F)(F)F)cc2)CC1                 No
1               Cc1cc(Cl)cc(Cl)c1OCCCCN(C)C                 No
2  NC(=O)c1nsc(C(=O)N(Cc2ccc(F)cc2)C(C(=O)NCC2CCCO2)c2ccc(O)cc2)c1N (configuration not stated)                 No
3  O=C(Nc1ccccc1Oc1cccnc1)C1CCCN(Cc2cccc(Cl)c2)C1 (configuration not stated)                 No
4  C=CCN(CC(O)c1cccc([N+](=O)[O-])c1)C(C)CCc1ccccc1 (configuration not stated)                 No

Qu. Could you check what this test reported for CN(C)CC(CCC(CN(C)C)C(O)(c1ccccc1)c1ccccc1)C(O)(c1ccccc1)c1ccccc1 (configuration not stated) ?
Ans. No

Qu. Which outcome was entered for the molecule `O=C(CN1CCCC1)N1c2ccccc2Sc2ccc(C(F)(F)F)cc21` in this test?
Ans. No

* * *

target: Short transient receptor potential channel 6 (Mus musculus) (UniProt Q61143); assay: TRPC6 blockade by TRPC4 inhibitor hits – cell-based, HEK293, membrane potential dye, duplicate, selectivity assay for TRPC4 inhibitor project, confirmation (AID 434948); conditions: HEK293 TRPC6, membrane potential dye fluorescence, at 10 µM, stimulated with maximal-effect acetylcholine
Sequence (Q61143 whole entry, looked up): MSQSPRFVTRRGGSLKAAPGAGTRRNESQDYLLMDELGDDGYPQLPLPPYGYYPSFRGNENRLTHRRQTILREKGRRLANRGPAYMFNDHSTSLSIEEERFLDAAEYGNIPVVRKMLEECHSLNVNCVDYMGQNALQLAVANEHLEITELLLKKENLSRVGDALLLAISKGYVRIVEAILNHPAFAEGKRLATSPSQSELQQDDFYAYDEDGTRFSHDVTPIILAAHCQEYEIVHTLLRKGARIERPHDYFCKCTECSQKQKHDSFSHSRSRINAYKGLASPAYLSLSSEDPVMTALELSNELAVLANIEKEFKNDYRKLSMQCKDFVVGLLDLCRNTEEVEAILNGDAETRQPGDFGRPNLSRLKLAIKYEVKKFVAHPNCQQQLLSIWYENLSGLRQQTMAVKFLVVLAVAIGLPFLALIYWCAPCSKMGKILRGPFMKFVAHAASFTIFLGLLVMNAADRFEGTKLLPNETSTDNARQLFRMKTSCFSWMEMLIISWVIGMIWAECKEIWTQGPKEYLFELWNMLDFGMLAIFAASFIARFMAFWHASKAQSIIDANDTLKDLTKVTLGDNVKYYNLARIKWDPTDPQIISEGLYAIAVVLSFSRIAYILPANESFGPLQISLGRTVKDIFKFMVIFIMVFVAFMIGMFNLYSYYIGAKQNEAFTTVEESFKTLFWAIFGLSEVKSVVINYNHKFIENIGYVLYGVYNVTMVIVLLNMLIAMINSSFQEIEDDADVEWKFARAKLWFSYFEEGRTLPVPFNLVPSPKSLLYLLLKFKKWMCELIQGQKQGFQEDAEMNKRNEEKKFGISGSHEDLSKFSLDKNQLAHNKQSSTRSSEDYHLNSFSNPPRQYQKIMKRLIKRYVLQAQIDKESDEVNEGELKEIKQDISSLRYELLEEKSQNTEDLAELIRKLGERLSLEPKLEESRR
Active and inactive are the calls of the source.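 How the source made its calls: active means active in primary screen and both duplicates, each dropping signal beyond three positive-control SD with fluorescence still positive; inactive means the rest.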
Write down the outcome that applies. Available outcomes: class 1 (active), class 0 (inactive)

A selection of reference data follows.
                                   compound  assigned_category
0       CCN1C(=O)/C(=C\N2CCCc3ccccc32)SC1=S            class 0
1    COc1ccc(OC)c(Nc2c3c(nc4ccccc24)CCC3)c1            class 0
2  O=S(=O)(c1ccc(Oc2ccc(Br)cc2)cc1)N1CCOCC1            class 0
3  OCC1(Cc2ccccc2)CCN(Cc2ccc(C(F)(F)F)cc2)CC1            class 0
4   COC(=O)CSc1nnc(-c2sc3cc(OC)ccc3c2Cl)n1C            class 0

Qu. Call for entry `COC(=O)C1CCN(Cc2cn(-c3ccccc3)nc2-c2ccc3c(c2)OCO3)CC1` :
Ans. class 0

Qu. Dear colleague, could you share the recorded outcome for `O=C(NCc1ccccc1)C1=C[C@@H](C2CCCCC2)C[C@@H](OCc2ccc(CO)cc2)O1` when you have a moment?
Ans. class 0

Qu. Hey, what did the test say about `Cc1cc(N2CCN(C)CC2)ccc1NC(=O)c1ccc(-c2ccc(Cl)cc2)o1` ?
Ans. class 0

Qu. Could you check what this test reported for `CCCCc1ccc(NC(=O)CSc2nnc(C)c(=O)n2N)cc1` ?
Ans. class 0

Qu. Call for entry `Cc1cc(C)c2[nH]c(=O)c(CN(Cc3cccnc3)C(=S)NCCCN(C)C)cc2c1` :
Ans. class 0

Qu. Could you check what this test reported for `COc1ccc(C(=O)c2no[n+]([O-])c2C(=O)c2ccc(OC)cc2)cc1` ?
Ans. class 0

Qu. Query: recorded result category for `Cc1cc(C)c(C)c(OCCCOc2cccc3cccnc23)c1` in this test
Ans. class 0

Qu. Query: recorded result category for COc1ccc(Br)cc1CNC(C)c1ccccc1 (stereo not drawn) in this test
Ans. class 1

Qu. GET /call?item= `Cc1cc(NC(=O)CCN2CCN(Cc3ccccc3)CC2)ccc1Br` returns the recorded outcome of this test.
Ans. class 0

Qu. How did this test come out for NC(=O)C1CCCN(CCc2ccccc2)C1 (stereo not drawn) ?
Ans. class 0

Qu. Any idea what this test logged for N#Cc1c(NC(=O)C2CC(Cl)=CCC2C(=O)O)sc2c1CCCCC2 (stereo not drawn) ?
Ans. class 0

Qu. Recorded test call requested for `COc1nc(N=C(N)N)nc2ccc(C)cc12`
Ans. class 1

Qu. For CC1(C)CC(NC(=O)c2cc(COc3cccc(C(F)(F)F)c3)on2)CCO1 (stereo not drawn) , which call appears in the assay record?
Ans. class 0

Qu. Returns: the outcome recorded for `COc1ccc(CNC(=O)CN(C)Cc2ccccc2F)cc1OC` in this assay.
Ans. class 0

Qu. State the result this test recorded for CC(C)C1CC(CCNCc2ccc3c(c2)OCO3)(c2ccccc2)CCO1 (stereo not drawn) .
Ans. class 0

Qu. Per the assay record, what outcome was assigned to `COC(=O)CSc1nnc(CNS(=O)(=O)c2ccc(Br)cc2)n1C` ?
Ans. class 0

Qu. What did the test return for `Cc1nn(-c2ccccc2)c2[nH]c(C(F)(F)F)cc(=O)c12` ?
Ans. class 0

Qu. Could you check what this test reported for Cc1ccc(C)c2c(N)c3c(nc12)CCCCC3 (tested in a mixture with another compound) ?
Ans. class 1
